B1: DnaJ homolog subfamily C member 5, residues 16 to 77; numbered along this chain, Q9H3Z4 (parent)
chain: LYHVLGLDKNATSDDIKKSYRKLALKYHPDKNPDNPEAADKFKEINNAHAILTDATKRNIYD

Variants of: B1
run.description: abundance fitness (aPCA) (normalised: wild type 0, dead -1); higher = more abundant; growth selection in yeast, the domain comes from the species named
protocol.conditions: Homo sapiens
measured.property: abundance fitness

INSERT INTO measurements (variant_spec, assay_value) VALUES
  ('N46V', 0.182),
  ('A50C', -0.688),
  ('G6R', -0.488),
  ('H3G', -0.157),
  ('K18F', 0.117),
  ('K22M', 0.32),
  ('E37F', -0.01),
  ('L25C', -0.102),
  ('D54T', -0.512),
  ('A50P', -0.773),
  ('D15Y', -0.888),
  ('H3N', -0.27),
  ('A55P', -0.036),
  ('F42L', 0.202),
  ('D40K', 0.385);
